Data credit: PubChem BioAssay (EPA / NIEHS)

Read-out: ABC Transporter (ABCB11), ABCB11 (gene 8647)
RUN_DESCRIPTION: LTEA_HepaRG_ABCB11: Life Technologies and Expression Analysis (LTEA) Assay for ABC Transporter (ABCB11) using HepaRG (AID 2283463)
CONDITION_DETAILS: mRNA level, 48 h; actives raise or lower the signal
Method: LTEA_HepaRG is a cell based, multiplexed-readout assay that uses HepaRG, a human liver cell line, with measurements taken at 48 hours after chemical dosing on a 96-well plate.LTEA_HepaRG_ABCB11 is one of 102 assay component(s) measured in the LTEA HepaRG cell culture assay. It is a marker of Steatosis/NR mediated transport.Data from the assay component LTEA_HepaRG_ABCB11 was analyzed into 1 endpoint. […]
Calls of active or inactive are those of the source. Rule for the calls: active = hit-call score of the fitted dose curve at least 0.9, where 1 is the maximum; inactive = score below 0.9.
Select the correct class. Options are true = active, false = inactive and nothing else.

Check out these entries, answers already filled in.
INSERT INTO assay_data (structure_as_smiles, qualitative_label) VALUES
  ('COc1cc2c(c(OC)c1OC)-c1ccc(OC)c(=O)cc1[C@@H](NC(C)=O)CC2', 'true'),
  ('O=C(NO)C1(NS(=O)(=O)c2ccc(Oc3ccc(F)cc3)cc2)CCOCC1', 'true'),
  ('c1ccc(C(O[C@@H]2CCCN(CCc3ccc4c(c3)OCO4)C2)c2ccccc2)cc1', 'true');

Outcome? c1ccc2cc3ccccc3cc2c1
true

For CNC(C)=O , what call appears in the results of this test?
false

Recorded test call requested for Cc1ncc([C@@H](CCCCCCc2ccc3c(n2)NCCC3)CC(=O)O)cn1
false
